- Tested on: VCaP cells
- experiment_summary: VCaP growth inhibition assay (CTG)
- Type: cell-based
- measurement_parameters: Homo sapiens, 216 h, 30 pM R1881, 9 days
// IC50 lookup, one value per entry

molecule="CC(=O)N1CCc2c(c(N3CCCc4cc(C#N)ccc43)nn2C2CC3(C2)CN(CC2CC4(C2)CN(c2ccc(C(=O)N[C@H]5CC[C@H](Oc6ccc(C#N)c(Cl)c6)CC5)nn2)C4)C3)C1 (some centres unmarked) [Compound 45]" result="0.1 to 1 nM"
molecule="CC(=O)N1CCc2c(c(N3CCCc4cc(-c5cnn(C)c5)c(C(F)F)cc43)nn2C2CCC3(CC2)CN(C2CCN(c4ccc(C(=O)N[C@H]5CC[C@H](Oc6ccc(C#N)c(Cl)c6)CC5)nn4)CC2)C3)C1 [Compound 238]" result="≤ 0.1 nM"
molecule="Cc1cc2c(N3CCCc4cc(-c5cnn(C)c5)c(C(F)F)cc43)cc(N3CCN(CC4CCN(c5ccc(C(=O)N[C@H]6CC[C@H](Oc7ccc(C#N)c(Cl)c7)CC6)nn5)CC4)CC3)cc2n(C)c1=O [Compound 135]" result="0.1 to 1 nM"
molecule="CC(=O)N1CCc2c(c(N3CCCc4cc(-c5cnn(C)c5)c(C(F)F)cc43)nn2C2CC3(CCN(C4CCN(c5ccc(C(=O)N[C@H]6CC[C@H](Oc7ccc(C#N)c(Cl)c7)CC6)nn5)CC4)CC3)C2)C1 [Compound 239]" result="≤ 0.1 nM"

For record CC(=O)N1CCc2c(c(-c3cccc4cc(-c5cnn(C)c5)ncc34)nn2C2CCN(C(=O)C3CCN(c4ccc(C(=O)N[C@H]5CC[C@H](Oc6ccc(C#N)c(Cl)c6)CC5)cc4)CC3)CC2)C1 [Compound 164] the listed IC50 is 0.1 to 1 nM

* * *

- Tested on: VCaP cells
- experiment_summary: VCaP growth inhibition assay (CTG)
- Type: cell-based
- measurement_parameters: Homo sapiens, 216 h, 30 pM R1881, 9 days
property_name: IC50

// known answers, use as guide
compound="CC(=O)N1CCc2c(c(Nc3ccc(-c4cnn(C)c4)cc3F)nn2C2CCN(CCC3CCN(c4ncc(C(=O)N[C@H]5CC[C@H](Oc6ccc(C#N)c(Cl)c6)CC5)cn4)CC3)CC2)C1 [Compound 10]" property_name=IC50 result="0.1 to 1 nM"
compound="CC(=O)N1CCc2c(c(N3CCCc4cc(-c5cnn(C)c5)c(C(F)F)cc43)nn2C2CCN(C[C@H]3[C@H](C)CN(c4ccc(C(=O)N[C@H]5CC[C@H](Oc6ccc(C#N)c(C)c6)CC5)nn4)C[C@@H]3C)CC2)C1 [Compound 289]" property_name=IC50 result="≤ 0.1 nM"
compound="CC(=O)N1CCc2c(c(-c3cccc4cc(-c5cnn([C@H]6CC[C@H](C7CCN(c8ccc(C(=O)N[C@H]9CC[C@H](Oc%10ccc(C#N)c(Cl)c%10)CC9)nn8)CC7)CC6)c5)ncc34)nn2C2CCOCC2)C1 [Compound 184]" property_name=IC50 result="1 to 100 nM"

# next compound below
Form: compound = CC(=O)N1CCc2c(c(N3CCCc4cc(-c5cnn(C)c5)c(C(F)F)cc43)nn2[C@H]2CC[C@@]3(CCCN(c4ccc(C(=O)N[C@H]5CC[C@H](Oc6ccc(C#N)c(Cl)c6)CC5)nn4)C3)CC2)C1 [Compound 267] ; IC50 = 1 to 100 nM

* * *

- tested_system: AR / CBP ternary complex (Homo sapiens, UniProt P10275+Q92793)
- Sequence (P10275 whole entry): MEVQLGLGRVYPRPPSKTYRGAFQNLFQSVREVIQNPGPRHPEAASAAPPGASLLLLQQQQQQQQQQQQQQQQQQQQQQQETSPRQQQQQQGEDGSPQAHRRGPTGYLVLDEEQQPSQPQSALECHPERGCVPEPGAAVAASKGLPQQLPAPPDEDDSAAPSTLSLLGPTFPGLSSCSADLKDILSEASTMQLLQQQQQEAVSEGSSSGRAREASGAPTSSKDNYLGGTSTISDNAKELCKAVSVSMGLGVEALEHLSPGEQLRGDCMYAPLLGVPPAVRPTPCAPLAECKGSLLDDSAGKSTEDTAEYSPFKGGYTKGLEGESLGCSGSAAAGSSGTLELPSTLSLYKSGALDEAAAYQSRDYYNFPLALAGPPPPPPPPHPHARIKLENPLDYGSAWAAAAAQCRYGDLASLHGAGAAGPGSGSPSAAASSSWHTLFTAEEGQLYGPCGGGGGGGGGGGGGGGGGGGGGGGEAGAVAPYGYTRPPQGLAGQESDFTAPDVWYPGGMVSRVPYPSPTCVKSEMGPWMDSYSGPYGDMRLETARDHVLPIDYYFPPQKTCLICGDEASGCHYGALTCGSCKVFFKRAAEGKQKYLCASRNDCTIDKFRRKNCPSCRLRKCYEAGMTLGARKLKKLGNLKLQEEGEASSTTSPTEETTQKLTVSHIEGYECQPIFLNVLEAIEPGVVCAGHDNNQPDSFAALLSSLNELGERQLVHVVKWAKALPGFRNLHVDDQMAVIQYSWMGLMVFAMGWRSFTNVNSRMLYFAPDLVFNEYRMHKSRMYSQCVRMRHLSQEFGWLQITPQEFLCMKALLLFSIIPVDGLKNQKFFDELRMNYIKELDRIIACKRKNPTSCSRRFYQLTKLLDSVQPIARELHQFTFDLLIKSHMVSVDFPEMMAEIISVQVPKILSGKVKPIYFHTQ
- Sequence (Q92793 2-2442): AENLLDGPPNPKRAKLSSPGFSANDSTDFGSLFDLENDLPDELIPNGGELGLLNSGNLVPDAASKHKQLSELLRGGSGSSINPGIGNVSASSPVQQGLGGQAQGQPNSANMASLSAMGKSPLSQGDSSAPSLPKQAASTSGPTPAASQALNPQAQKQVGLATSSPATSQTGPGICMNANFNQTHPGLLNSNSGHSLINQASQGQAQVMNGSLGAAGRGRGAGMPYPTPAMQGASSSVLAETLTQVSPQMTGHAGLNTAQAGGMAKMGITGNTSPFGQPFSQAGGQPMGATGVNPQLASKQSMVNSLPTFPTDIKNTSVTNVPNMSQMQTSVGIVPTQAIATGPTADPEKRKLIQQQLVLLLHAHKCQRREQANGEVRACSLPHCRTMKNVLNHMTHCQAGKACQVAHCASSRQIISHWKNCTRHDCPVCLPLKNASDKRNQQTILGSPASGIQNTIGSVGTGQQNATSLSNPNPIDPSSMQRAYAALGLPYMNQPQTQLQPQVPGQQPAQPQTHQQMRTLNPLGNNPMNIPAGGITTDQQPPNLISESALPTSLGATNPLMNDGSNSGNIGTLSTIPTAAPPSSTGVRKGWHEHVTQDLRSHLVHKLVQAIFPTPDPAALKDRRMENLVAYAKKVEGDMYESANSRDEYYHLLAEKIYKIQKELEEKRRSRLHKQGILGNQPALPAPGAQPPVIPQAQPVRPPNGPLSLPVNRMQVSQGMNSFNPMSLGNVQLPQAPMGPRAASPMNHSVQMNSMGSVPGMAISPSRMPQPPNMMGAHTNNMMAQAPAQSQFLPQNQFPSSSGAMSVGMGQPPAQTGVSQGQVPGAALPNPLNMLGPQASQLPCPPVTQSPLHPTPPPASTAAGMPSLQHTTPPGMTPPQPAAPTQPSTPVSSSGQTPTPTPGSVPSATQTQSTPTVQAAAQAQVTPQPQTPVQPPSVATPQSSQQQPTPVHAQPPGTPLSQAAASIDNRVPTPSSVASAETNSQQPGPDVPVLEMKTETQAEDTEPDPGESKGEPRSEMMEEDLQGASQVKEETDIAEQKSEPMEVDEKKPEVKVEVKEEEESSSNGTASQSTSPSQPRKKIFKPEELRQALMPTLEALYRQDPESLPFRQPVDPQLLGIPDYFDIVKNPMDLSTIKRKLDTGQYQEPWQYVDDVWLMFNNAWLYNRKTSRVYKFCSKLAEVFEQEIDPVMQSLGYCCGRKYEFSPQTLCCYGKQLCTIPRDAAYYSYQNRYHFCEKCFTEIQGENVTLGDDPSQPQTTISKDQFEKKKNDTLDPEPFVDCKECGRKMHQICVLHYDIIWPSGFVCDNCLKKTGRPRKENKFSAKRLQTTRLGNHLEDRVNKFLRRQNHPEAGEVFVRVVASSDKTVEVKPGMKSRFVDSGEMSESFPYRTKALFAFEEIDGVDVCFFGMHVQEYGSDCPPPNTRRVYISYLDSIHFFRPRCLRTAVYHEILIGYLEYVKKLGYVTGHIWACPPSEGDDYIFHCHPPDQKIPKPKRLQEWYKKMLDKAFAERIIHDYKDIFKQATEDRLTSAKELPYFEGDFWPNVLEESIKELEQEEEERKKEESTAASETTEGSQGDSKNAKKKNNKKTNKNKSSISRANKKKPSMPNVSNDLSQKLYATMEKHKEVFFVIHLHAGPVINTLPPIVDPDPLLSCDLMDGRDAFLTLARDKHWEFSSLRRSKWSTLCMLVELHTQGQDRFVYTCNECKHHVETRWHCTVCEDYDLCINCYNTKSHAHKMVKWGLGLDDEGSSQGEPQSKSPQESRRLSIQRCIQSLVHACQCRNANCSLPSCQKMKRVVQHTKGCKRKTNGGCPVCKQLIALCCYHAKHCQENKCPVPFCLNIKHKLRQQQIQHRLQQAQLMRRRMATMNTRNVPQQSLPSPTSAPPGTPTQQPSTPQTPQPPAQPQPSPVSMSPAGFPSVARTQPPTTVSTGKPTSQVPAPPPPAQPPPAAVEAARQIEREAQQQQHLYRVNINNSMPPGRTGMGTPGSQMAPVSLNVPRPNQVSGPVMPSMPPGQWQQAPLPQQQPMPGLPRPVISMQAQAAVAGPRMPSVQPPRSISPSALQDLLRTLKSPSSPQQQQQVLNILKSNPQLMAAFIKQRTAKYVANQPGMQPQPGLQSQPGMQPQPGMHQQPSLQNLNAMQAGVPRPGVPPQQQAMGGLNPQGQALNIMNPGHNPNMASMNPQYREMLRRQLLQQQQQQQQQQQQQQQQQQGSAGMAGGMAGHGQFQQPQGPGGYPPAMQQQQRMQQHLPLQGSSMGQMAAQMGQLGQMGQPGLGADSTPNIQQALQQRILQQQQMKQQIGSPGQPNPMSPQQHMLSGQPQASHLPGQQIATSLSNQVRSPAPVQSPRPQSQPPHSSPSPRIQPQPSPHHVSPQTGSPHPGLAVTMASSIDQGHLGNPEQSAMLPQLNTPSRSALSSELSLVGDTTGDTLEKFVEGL
- experiment_summary: Ternary complex formation assay (sandwich ELISA, AR capture, CBP antibody detection) in VCaP cell lysates
- Format: cell-based
- measurement_parameters: treated 1.5 hours, rabbit CBP or p300 antibody detection, average, read-out: Average Ternary Complex
property_name: EC50

In the examples that follow, each entry is paired with its recorded EC50.
compound="CC(=O)N1CCc2c(c(N3CCCc4cc(-c5cnn(C)c5)c(C(F)F)cc43)nn2C2CCN(C3CC(C#Cc4ccc(C(=O)N[C@H]5CC[C@H](Oc6ccc(C#N)c(Cl)c6)CC5)nn4)C3)CC2)C1 (some centres unmarked)" property_name=EC50 result="< 1 nM"
compound="CC(=O)N1CCc2c(c(N3CCCc4cc(-c5cnn(C)c5)c(C(F)F)cc43)nn2C2CC3(C2)CN(C(=O)C2CC4(C2)CN(c2ccc(C(=O)N[C@H]5CC[C@H](Oc6ccc(C#N)c(Cl)c6)CC5)nn2)C4)C3)C1 (some centres unmarked)" property_name=EC50 result="1 to 10 nM"
compound=CC(=O)N1CCc2c(c(N3CCCc4cc(-c5cnn(C)c5)c(C(F)F)cc43)nn2C2CCN(CC3CCN(c4ccc(C(=O)N[C@H]5CC[C@H](Oc6ccc(C#N)c(Cl)c6)CC5)cn4)CC3)CC2)C1 property_name=EC50 result="< 1 nM"
compound="CC(=O)N1CCc2c(c(N3CCCc4cc(-c5cnn(C)c5)c(C(F)F)cc43)nn2C2CCN(C[C@H]3CCN(c4ccc(C(=O)N[C@H]5CC[C@H](Oc6ccc(C#N)c(Cl)c6)CC5)nn4)C[C@H]3C)CC2)C1 [Compound 234]" property_name=EC50 result="< 1 nM"

Briefly, EC50 measured for CC(=O)N1CCc2c(c(-c3cccc4cc(C5CC5)ncc34)nn2C2CCN(CC3CCN(c4ccc(C(=O)N[C@H]5CC[C@H](Oc6ccc(C#N)c(Cl)c6)CC5)nn4)CC3)CC2)C1 : < 1 nM

* * *

Reported IC50 by item:
- Test system: VCaP cells
- experiment_summary: VCaP growth inhibition assay (CTG)
- Type: cell-based
- measurement_parameters: Homo sapiens, 216 h, 30 pM R1881, 9 days

compound=CC(=O)N1CCc2c(c(N3CCCc4cc(-c5cnn(C)c5)c(C(F)F)cc43)nn2C2CCN(C3CCC4(CC3)CN(c3ccc(C(=O)N[C@H]5CC[C@H](Oc6ccc(C#N)c(Cl)c6)CC5)nn3)C4)CC2)C1 result="≤ 0.1 nM"

The reported value for CC(=O)N1CCc2c(c(-c3cccc4cc(-c5cnn(C6CCC7(CC6)CCN(c6ccc(C(=O)N[C@H]8CC[C@H](Oc9ccc(C#N)c(Cl)c9)CC8)nn6)CC7)c5)ncc34)nn2C2CCOCC2)C1 in terms of IC50 is ≤ 0.1 nM

# compound CC(=O)N1CCc2c(c(N3CCCc4cc(-c5cnn(C)c5)c(C(F)F)cc43)nn2C2CCN(CC3CCN(c4ccc(C(=O)N[C@H]5CC[C@H](Oc6ccc(C#N)c(Cl)c6)CC5)nn4)CC3(C)C)CC2)C1 (stereo partly drawn) ; its IC50 = ≤ 0.1 nM

Form: compound = CN1C(=O)CCc2cc(N3CCCc4cc(-c5ccc(CCC6CCN(c7ccc(C(=O)N[C@H]8CC[C@H](Oc9ccc(C#N)c(Cl)c9)CC8)nn7)CC6)nc5)c(C(F)F)cc43)ccc21 ; IC50 = > 100 nM

Noted for CC(=O)N1CCc2c(c(N3CCCc4cc(C#N)ccc43)nn2C2CCN(C[C@H]3CCN(c4ccc(C(=O)N[C@H]5CC[C@H](Oc6ccc(C#N)c(Cl)c6)CC5)nn4)C[C@@H]3C)CC2)C1 (stereo in doubt) : its IC50 reads 0.1 to 1 nM

* * *

- System: VCaP cells
- experiment_summary: VCaP growth inhibition assay (CTG)
- Assay type: cell-based
- measurement_parameters: Homo sapiens, 216 h, 30 pM R1881, 9 days
pIC50: −log10 of the molar value.
Reported pIC50 is given for each of the following compounds.

Check out these entries, answers already filled in.
compound="CC(=O)N1CCc2c(c(-c3cccc4nc(-c5cnn(CCC6CCN(c7ccc(C(=O)N[C@H]8CC[C@H](Oc9ccc(C#N)c(Cl)c9)CC8)nn7)CC6)c5)ncc34)nn2C2CCOCC2)C1 [Compound 70]" tested_system="VCaP cells" property_name=pIC50 result="9.00 to 10.00"
compound="CC(=O)N1CCc2c(c(N3CCCc4ccc(C(F)F)cc43)nn2C2CC3(C2)CN(C(=O)C2CC4(C2)CN(c2ccc(C(=O)N[C@H]5CC[C@H](Oc6ccc(C#N)c(Cl)c6)CC5)nn2)C4)C3)C1 (some centres unmarked) [Compound 42]" tested_system="VCaP cells" property_name=pIC50 result="9.00 to 10.00"
compound="Cn1cc(-c2cc3c(cc2C(F)F)N(c2cc(C4=CCN(CC5CCN(c6ccc(C(=O)N[C@H]7CC[C@H](Oc8ccc(C#N)c(Cl)c8)CC7)nn6)CC5)CC4)c4c(c2)n(C)c(=O)n4C)CCC3)cn1 [Compound 148]" tested_system="VCaP cells" property_name=pIC50 result="9.00 to 10.00"
compound="CC(=O)N1CCc2c(c(N3CCCc4cc(-c5cnn(C)c5)c(C(F)F)cc43)nn2C2CCN(C(=O)CC3CCN(c4ccc(C(=O)N[C@H]5CC[C@H](N(C)c6ccc(C#N)c(Cl)c6)CC5)cc4)CC3)CC2)C1 [Compound 13]" tested_system="VCaP cells" property_name=pIC50 result="9.00 to 10.00"

CC(=O)N1CCc2c(c(N3CCCc4cc(-c5cnn(C)c5)c(C(F)F)cc43)nn2C2CCC3(CC2)CC(Oc2ccc(C(=O)N[C@H]4CC[C@H](Oc5ccc(C#N)c(C(F)(F)F)c5)CC4)nn2)C3)C1 (some centres unmarked) [Compound 246] yielded pIC50 of 7.00 to 9.00
